All values here come from the supplement of paper PMC9112550.

test system: Escherichia coli TOP10; experiment: shrunken log2 fold change of peptide-encoding DNA abundance (4.5 h post-induction vs induction); higher = less antimicrobial activity (less host growth inhibition); conditions: time post-induction: 4.5 h; library: site-saturation at positions 5, 18, 19, 20
Assign shrunken log2 fold change to each entry below.
Answers are plain numbers.

1) RRIRVRPPRLPRPRPRPRQCPRP: 0.33
2) RRIRHRPPRLPRPRPRPYLYPRP: -0.482
3) RRIRDRPPRLPRPRPRPTSRPRP: 0.208
4) RRIRFRPPRLPRPRPRPKDVPRP: -0.00433
5) RRIRYRPPRLPRPRPRPLRYPRP: -0.426

Give me shrunken log2 fold change for each of these sequences, listed below.
1. RRIRQRPPRLPRPRPRPKTGPRP
2. RRIRRRPPRLPRPRPRPKAYPRP
3. RRIRTRPPRLPRPRPRPWMDPRP

OUTPUT:
1. -0.151
2. 0.224
3. -0.13

---

tested on: Escherichia coli TOP10; assay: shrunken log2 fold change of peptide-encoding DNA abundance (4.5 h post-induction vs induction); higher = less antimicrobial activity (less host growth inhibition); details: time post-induction: 4.5 h; library: site-saturation at positions 5, 18, 19, 20
Assign class by shrunken log2 fold change: not lower than -0.05 means Fulfilled; lower than -0.05 means Not fulfilled.

Field: example entries. Status: answers known.
1. RRIRDRPPRLPRPRPRPDMCPRP: Fulfilled
2. RRIRMRPPRLPRPRPRPMKRPRP: Fulfilled

INPUT: Reported shrunken log2 fold change at or above -0.05? `RRIRERPPRLPRPRPRPFVWPRP`
OUTPUT: Fulfilled

INPUT: I'd appreciate it if you could say whether `RRIRRRPPRLPRPRPRPQGYPRP` has shrunken log2 fold change at least equal to -0.05.
OUTPUT: Not fulfilled

---

tested on: Escherichia coli TOP10; experiment: shrunken log2 fold change of peptide-encoding DNA abundance (4.5 h post-induction vs induction); higher = less antimicrobial activity (less host growth inhibition); settings: time post-induction: 4.5 h; library: site-saturation at positions 5, 18, 19, 20
Tick y if shrunken log2 fold change is -0.2 or greater. Tick n if shrunken log2 fold change is less than -0.2.

Here are 4 sequences together with their reported answers.
1. RRIRSRPPRLPRPRPRPWHCPRP: n
2. RRIRERPPRLPRPRPRPPRLPRP: y
3. RRIRARPPRLPRPRPRPQWWPRP: y
4. RRIRHRPPRLPRPRPRPPLMPRP: y

INPUT: Could you tell me if the measured shrunken log2 fold change of `RRIRCRPPRLPRPRPRPDQNPRP` reaches -0.2 or more?
OUTPUT: y

INPUT: Please tell me: is the sequence `RRIRFRPPRLPRPRPRPNPYPRP` at or over -0.2 in terms of shrunken log2 fold change?
OUTPUT: n

---

Answer each item with its documented shrunken log2 fold change.
test system: Escherichia coli TOP10; assay: shrunken log2 fold change of peptide-encoding DNA abundance (4.5 h post-induction vs induction); higher = less antimicrobial activity (less host growth inhibition); conditions: time post-induction: 4.5 h; library: site-saturation at positions 5, 18, 19, 20;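 also: peptides expressed intracellularly from a pBAD plasmid library in pooled LB shake-flask culture, induced with 0.3% L-arabinose, DNA abundance read by NGS, three biological replicates, DESeq2 with apeglm shrinkage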
One number for each entry.

Solved cases below.
1. RRIRGRPPRLPRPRPRPTPLPRP: 0.747
2. RRIRERPPRLPRPRPRPIDPPRP: 0.0954
3. RRIRSRPPRLPRPRPRPDGAPRP: 0.289
4. RRIRQRPPRLPRPRPRPDYDPRP: 0.003
5. RRIRMRPPRLPRPRPRPHASPRP: 0.116
6. RRIRKRPPRLPRPRPRPESMPRP: 0.603

Your task in this section: give shrunken log2 fold change for each listed record.
1. RRIRYRPPRLPRPRPRPQRNPRP
2. RRIRCRPPRLPRPRPRPRAIPRP
3. RRIRMRPPRLPRPRPRPEEGPRP
4. RRIRHRPPRLPRPRPRPGGVPRP
5. RRIRVRPPRLPRPRPRPMYEPRP
6. RRIRFRPPRLPRPRPRPMMFPRP
7. RRIRHRPPRLPRPRPRPGETPRP

OUTPUT:
1. -0.758
2. 0.0982
3. 0.0237
4. 0.237
5. -0.774
6. 0.126
7. -0.00149
